Reported RORγt (FL) Reporter Assay B or C, % inhibition (value marked *) values are given for each entry in this list.
# TEST_SYSTEM: full-length human RORγt (Homo sapiens (Human))
# Sequence (P51449 other isoform, or with tags, fused parts or gaps): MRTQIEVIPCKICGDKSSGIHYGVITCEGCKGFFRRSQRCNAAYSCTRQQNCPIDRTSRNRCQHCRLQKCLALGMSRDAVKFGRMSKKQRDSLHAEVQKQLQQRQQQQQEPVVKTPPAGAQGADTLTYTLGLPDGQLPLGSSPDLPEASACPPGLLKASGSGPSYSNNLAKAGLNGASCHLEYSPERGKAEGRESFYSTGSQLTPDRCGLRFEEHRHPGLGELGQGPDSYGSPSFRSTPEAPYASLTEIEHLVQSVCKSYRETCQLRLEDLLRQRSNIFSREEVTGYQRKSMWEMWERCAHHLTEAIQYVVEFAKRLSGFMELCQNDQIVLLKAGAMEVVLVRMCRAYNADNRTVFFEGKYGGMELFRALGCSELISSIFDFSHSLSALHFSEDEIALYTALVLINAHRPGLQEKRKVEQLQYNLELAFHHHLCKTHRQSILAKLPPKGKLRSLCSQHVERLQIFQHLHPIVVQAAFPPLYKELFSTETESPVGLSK
# METHOD_DESCRIPTION: RORγt (full-length human) reporter assay, Conditions B or C
# Assay type: cell-based
# CONDITION_CONTEXT: Conditions B or C; marked *: footnote not given

# COMPOUND, EXPERIMENTAL_VALUE
measured = [
    ("C[C@H](Nc1cc(C(F)F)c(-c2sc(C(=O)NCC(C)(C)O)nc2C(=O)N2CC(F)(F)C[C@@H]2C)cn1)C(F)(F)F", "100* %"),
    ("C[C@H]1CCCN1C(=O)c1nc(C(=O)NCC(C)(C)O)sc1-c1cnc(NC2CCCC2(F)F)cc1C(F)(F)F (stereo partly drawn)", "114* %"),
    ("CC(C)(O)CNC(=O)c1nc(C(=O)N2C3CCC2CC3)c(-c2cnc(NC3(C)CCC3)cc2C(F)F)s1", "94* %"),
    ("CC[C@H](Nc1cc(C(F)F)c(-c2sc(C(=O)N[C@@H]3CCC[C@H]3O)nc2C(=O)N2CCC[C@@H]2C)cn1)C(F)(F)F", "92* %"),
    ("C[C@H]1CCCN1C(=O)c1nc(C(=O)NCC(C)(C)O)sc1-c1cnc(NC(C)(C)C2CC2)cc1C(F)F", "116* %"),
]

full-length human RORγt (Homo sapiens (Human)) data for C[C@H]1CC(F)(F)CN1C(=O)c1nc(C(=O)N[C@@H]2COC[C@@H]2O)sc1-c1cnc(NC2(C)CCC2)cc1C(F)(F)F (relative stereo) ; its RORγt (FL) Reporter Assay B or C, % inhibition (value marked *): 76* %

full-length human RORγt (Homo sapiens (Human)) data for CC[C@H](Nc1cc(C(F)F)c(-c2sc(C(=O)NC3CCS(=O)(=O)CC3)nc2C(=O)N2C3CCC2CC3)cn1)C(F)(F)F ; its RORγt (FL) Reporter Assay B or C, % inhibition (value marked *): 99* %

full-length human RORγt (Homo sapiens (Human)) data for C[C@H]1CCCN1C(=O)c1nc(C(=O)NCC(C)(C)O)sc1-c1cnc(NC(C)(C)C(F)(F)F)cc1C(F)(F)F ; its RORγt (FL) Reporter Assay B or C, % inhibition (value marked *): 112* %

full-length human RORγt (Homo sapiens (Human)) data for CCC(C)(C)Nc1cc(C(F)(F)F)c(-c2sc(C(=O)NCC(C)(C)O)nc2C(=O)N2CCC[C@@H]2C)cn1 ; its RORγt (FL) Reporter Assay B or C, % inhibition (value marked *): 124* %

full-length human RORγt (Homo sapiens (Human)) data for CC[C@@H](Nc1cc(C(F)F)c(-c2sc(C(=O)N[C@H]3C[C@H](O)C3)nc2C(=O)N2CCC[C@@H]2C)cn1)C(F)(F)F ; its RORγt (FL) Reporter Assay B or C, % inhibition (value marked *): 103* %

----------
Reported inhibition at 3 µM values are given for each entry in this list.
# TEST_SYSTEM: full-length human RORγt (Homo sapiens (Human))
# METHOD_DESCRIPTION: RORγt (full-length human) reporter assay, Conditions B or C
# Assay type: cell-based
# CONDITION_CONTEXT: at 3 μM compound concentration; read-out: RORγt (FL) Reporter Assay B or C, % inhibition
All answers are understood in %, so give the number only.

# MOLECULE, TEST_SYSTEM, MEASUREMENT_NAME, UNIT_ABBREV, EXPERIMENTAL_VALUE
measured = [
    ("C[C@H]1CCCN1C(=O)c1nc(C(=O)N[C@H]2C[C@H](O)C2)sc1-c1cnc(N[C@H](C)C(F)(F)F)cc1C(F)F", "full-length human RORγt (Homo sapiens (Human))", "inhibition at 3 µM", "%", 91),
    ("C[C@H]1CCCN1C(=O)c1nc(C(=O)NC2CCCC2O)sc1-c1cnc(NC(C)(C)C)cc1C(F)(F)F (stereo partly shown)", "full-length human RORγt (Homo sapiens (Human))", "inhibition at 3 µM", "%", 124),
    ("C[C@H]1CCCN1C(=O)c1nc(C(=O)NCC(C)(C)O)sc1-c1cnc(NCC2CCC2)cc1C(F)F", "full-length human RORγt (Homo sapiens (Human))", "inhibition at 3 µM", "%", 95),
    ("C[C@H]1CCCN1C(=O)c1nc(C(=O)N2CC(CO)C2)sc1-c1cnc(NC(C)(C)C)cc1C(F)(F)F", "full-length human RORγt (Homo sapiens (Human))", "inhibition at 3 µM", "%", 103),
]

Note to self: inhibition at 3 µM recorded for C[C@H](NC(=O)c1nc(C(=O)N2CCC[C@@H]2C)c(-c2cnc(N[C@@H](C3CC3)C(F)(F)F)cc2C(F)F)s1)C(C)(C)O was 106

Note to self: inhibition at 3 µM recorded for C[C@H](CO)NC(=O)c1nc(C(=O)N2CC(F)(F)C[C@@H]2C)c(-c2cnc(NC(C)(C)C)cc2C(F)F)s1 was 113

Note to self: inhibition at 3 µM recorded for C[C@H]1CCCN1C(=O)c1nc(C(=O)NC[C@@H](O)C(F)(F)F)sc1-c1cnc(NC(C)(C)C)cc1C(F)(F)F (relative stereo) was 93
